- system_name: MCT1 (Rattus norvegicus (Rat))
- Sequence (P53987 whole entry): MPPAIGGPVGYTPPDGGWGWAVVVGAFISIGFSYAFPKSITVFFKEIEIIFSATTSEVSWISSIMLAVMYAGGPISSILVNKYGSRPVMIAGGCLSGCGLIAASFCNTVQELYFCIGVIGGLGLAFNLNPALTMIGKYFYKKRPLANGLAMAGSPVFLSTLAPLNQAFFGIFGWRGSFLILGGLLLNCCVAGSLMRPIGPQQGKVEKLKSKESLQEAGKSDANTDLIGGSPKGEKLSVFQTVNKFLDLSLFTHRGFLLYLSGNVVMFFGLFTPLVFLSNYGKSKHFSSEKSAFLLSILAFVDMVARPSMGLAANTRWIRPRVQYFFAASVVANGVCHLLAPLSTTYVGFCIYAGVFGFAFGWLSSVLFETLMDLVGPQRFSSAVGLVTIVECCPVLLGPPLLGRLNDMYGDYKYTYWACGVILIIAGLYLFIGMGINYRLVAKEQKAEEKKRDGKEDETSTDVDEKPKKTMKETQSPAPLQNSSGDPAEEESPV
- Sequence (P26453 141-388 partner): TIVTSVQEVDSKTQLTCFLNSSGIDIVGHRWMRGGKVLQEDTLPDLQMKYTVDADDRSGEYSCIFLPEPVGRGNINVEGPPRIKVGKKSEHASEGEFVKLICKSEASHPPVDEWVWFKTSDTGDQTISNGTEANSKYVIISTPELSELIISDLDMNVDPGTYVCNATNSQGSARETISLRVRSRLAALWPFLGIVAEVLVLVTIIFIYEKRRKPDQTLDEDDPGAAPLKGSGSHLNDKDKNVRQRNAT
- method: Test A. MCT1 inhibition via lactate uptake in rat brain endothelial (RBE4) cells
- Format: cell-based
- stated_conditions: 14C-lactate uptake
- Experimental: Test A. MCT1 Inhibition Via Lactate Uptake Rat Brain Endothelial Cells The entire lactate uptake studies for the inhibition of MCT1 were carried out on RBE4 (Rat Brain Endothelial 4) cells. The expression of MCT1 on these cells was confirmed by Western Blotting. The cells were plated approximately 20-24 hours before the experiment, the number of cells being approximately 10^5 cells per well. […] The percent inhibition values were calculated by taking DMSO as minimum. […]
Note to self: use 1 (yes) only for IC50 readings below 0.02 µM; a reading exactly at 0.02 µM still gets 0 (no).

Query: Decide: IC50 of CCCCCN(CCCCC)c1ccc(/C=C(\C#N)C(=O)O)c(OC)c1 [Compound 15] strictly below 0.02 µM?
Response: 0 (no)

Query: Does the reported IC50 of the following compound sit strictly below 0.02 µM? N#C/C(=C\c1ccc(N(Cc2ccccc2)Cc2ccccc2)cc1)C(=O)O [Compound 10]
Response: 0 (no)

Query: Would you kindly verify if IC50 of C#CCN(CC#C)c1ccc(/C=C(\C#N)C(=O)O)cc1 [Compound 8] is strictly less than 0.02 µM?
Response: 0 (no)

Query: Below 0.02 µM on IC50? Entry COc1cc(N(c2ccccc2)c2ccccc2)ccc1/C=C(\C#N)C(=O)O [Compound 20]
Response: 1 (yes)

Query: Please indicate whether the reported IC50 of CCCCN(CCCC)c1ccc(/C=C(\C#N)C(=O)O)cc1 [Compound 4] is strictly below 0.02 µM.
Response: 0 (no)

----------
- method: Pharmacokinetic study of Compound 20 in ICR mice
- Assay type: in vivo
- stated_conditions: male, ICR, mouse, plasma, po, 100 mg/kg, 100 mg/kg p.o., 0 h, n = 3, read-out: Plasma Concentration, Mean
measurement_label: concentration at 0 h (ng/mL)
Numbers only here, please. The scale is ng/mL.

Query: Find the recorded concentration at 0 h belonging to COc1cc(N(c2ccccc2)c2ccccc2)ccc1/C=C(\C#N)C(=O)O and report it.
Response: 0

----------
- method: Pharmacokinetic study of Compound 20 in ICR mice
- Assay type: in vivo
- stated_conditions: male, ICR, mouse, plasma, po, 100 mg/kg, 100 mg/kg p.o., 24 h, n = 3
measurement_label: concentration at 24 h (ng/mL)
Respond with the bare value in ng/mL.

Query: Entry COc1cc(N(c2ccccc2)c2ccccc2)ccc1/C=C(\C#N)C(=O)O : reported concentration at 24 h = ?
Response: 47.7

----------
- method: Pharmacokinetic study of Compound 20 in ICR mice
- Format: in vivo
- stated_conditions: male, ICR, mouse, plasma, po, 100 mg/kg, 100 mg/kg p.o., 0.25 h, read-out: Plasma Concentration, individual animals (1#, 2#, 3#)
measurement_label: concentration at 0.25 h (ng/mL)
State just the number; it will be interpreted in ng/mL.

Query: Dear colleague, I am looking for the recorded concentration at 0.25 h of the following compound: COc1cc(N(c2ccccc2)c2ccccc2)ccc1/C=C(\C#N)C(=O)O
Response: 9690

----------
- method: Pharmacokinetic study of Compound 20 in ICR mice
- Assay type: in vivo
- stated_conditions: male, mouse, po, 100 mg/kg p.o., plasma, mean
measurement_label: AUC(0-inf) (ng·h/mL)
Give the value, in units of ng·h/mL, as a plain number.

Query: Name the recorded AUC(0-inf) for COc1cc(N(c2ccccc2)c2ccccc2)ccc1/C=C(\C#N)C(=O)O [Compound 20] .
Response: 66000

----------
- system_name: UniProtKB P53987
- method: Test A. MCT1 inhibition via lactate uptake in rat brain endothelial (RBE4) cells
- Format: cell-based
- stated_conditions: 14C-lactate uptake
Please go through the items and note down their IC50.
# number only, unit µM dropped from output

Query: Please tell me: IC50 of COc1cc(N2CCCC2)ccc1/C=C(\C#N)C(=O)O , system UniProtKB P53987?
Response: 0.059

Query: Look up IC50 with UniProtKB P53987 for this compound: O=C(O)c1cc2ccc(N(Cc3ccc4c(c3)OCO4)Cc3ccc4c(c3)OCO4)cc2oc1=O
Response: 0.11

Query: Field: IC50 (UniProtKB P53987). Entry: CCCCCN(CCCCC)c1ccc(/C=C(\C#N)C(=O)O)cc1
Response: 0.12

Query: # get_value(readout= IC50, system= UniProtKB P53987) for N#C/C(=C\c1ccc(N2CCCC2)cc1)C(=O)O
Response: 0.064

Query: Notebook entry, UniProtKB P53987 assay: IC50 of CCCN(CCC)c1ccc2cc(C(=O)O)c(=O)oc2c1 = ?
Response: 0.299

----------
- method: Pharmacokinetic study of Compound 20 in ICR mice
- Assay type: in vivo
- stated_conditions: male, mouse, po, 100 mg/kg p.o., plasma, mean, read-out: Vz/F
- Method: 60 male ICR mice were split into two groups of 30. In each group the mice were prescribed Compound 20 at a dosage of 100 mg/kg. This dose was administered orally in group 1 and intraperitoneally in group 2. Each group of 30 mice was subdivided into groups of 3 mice. […] Plasma and Brain samples were centrifuged at 15777×g for 5 minutes, and 180 ul of supernatant was placed in a 96-well assay plate. […] 5 ul aliquots of each well were then analyzed using LC-MS/MS. […]
measurement_label: Vd/F (L/kg)
Write it as a number; the unit L/kg goes unstated.

Query: What Vd/F value was documented for this compound, COc1cc(N(c2ccccc2)c2ccccc2)ccc1/C=C(\C#N)C(=O)O [Compound 20] ?
Response: 6.55

----------
- method: Pharmacokinetic study of Compound 20 in ICR mice
- Type: in vivo
- stated_conditions: male, mouse, po, 100 mg/kg p.o., plasma, mean
measurement_label: Cmax (ng/mL)
Use ng/mL as the unit, but write only the number.

Query: Which value of Cmax has been reported for COc1cc(N(c2ccccc2)c2ccccc2)ccc1/C=C(\C#N)C(=O)O in the records?
Response: 17500

----------
- method: Pharmacokinetic study of Compound 20 in ICR mice
- Type: in vivo
- stated_conditions: male, mouse, po, 100 mg/kg p.o., plasma, mean
measurement_label: AUC(0-t) (ng·h/mL)
The figure you give is taken to be in ng·h/mL; do not add the unit.

Query: What value of measured AUC(0-t) is listed for COc1cc(N(c2ccccc2)c2ccccc2)ccc1/C=C(\C#N)C(=O)O ?
Response: 65700

----------
- method: Pharmacokinetic study of Compound 20 in ICR mice
- Format: in vivo
- stated_conditions: male, ICR, mouse, plasma, po, 100 mg/kg, 100 mg/kg p.o., 6 h, n = 3
measurement_label: concentration at 6 h (ng/mL)
Express it in ng/mL; write the number only.

Query: What value of concentration at 6 h has been recorded for this entry: COc1cc(N(c2ccccc2)c2ccccc2)ccc1/C=C(\C#N)C(=O)O
Response: 2470

----------
- method: Pharmacokinetic study of Compound 20 in ICR mice
- Format: in vivo
- stated_conditions: male, ICR, mouse, plasma, ip, 100 mg/kg, 100 mg/kg i.p., 2 h, read-out: Plasma Concentration, individual animals (1#, 2#, 3#)
measurement_label: concentration at 2 h

Query: If you can, please state the reported concentration at 2 h value of COc1cc(N(c2ccccc2)c2ccccc2)ccc1/C=C(\C#N)C(=O)O .
Response: 38800 ng/mL

----------
- method: Pharmacokinetic study of Compound 20 in ICR mice
- Type: in vivo
- stated_conditions: male, ICR, mouse, plasma, po, 100 mg/kg, 100 mg/kg p.o., 0 h, read-out: Plasma Concentration, individual animals (1#, 2#, 3#)
measurement_label: concentration at 0 h (ng/mL)
I only need the number, in ng/mL, no unit after it.

Query: Which value of concentration at 0 h has been reported for COc1cc(N(c2ccccc2)c2ccccc2)ccc1/C=C(\C#N)C(=O)O in the records?
Response: 0

----------
- method: Pharmacokinetic study of Compound 20 in ICR mice
- Type: in vivo
- stated_conditions: male, ICR, mouse, plasma, ip, 100 mg/kg, 100 mg/kg i.p., 24 h, n = 3
measurement_label: concentration at 24 h (ng/mL)
Lab book: enter the figure in ng/mL, no units written.

Query: Requested field: concentration at 24 h. Item: COc1cc(N(c2ccccc2)c2ccccc2)ccc1/C=C(\C#N)C(=O)O
Response: 121

----------
- method: Pharmacokinetic study of Compound 20 in ICR mice
- Assay type: in vivo
- stated_conditions: male, ICR, mouse, plasma, po, 100 mg/kg, 100 mg/kg p.o., 2 h, n = 3, read-out: Plasma Concentration, Mean
measurement_label: concentration at 2 h (ng/mL)
The reply should be a number in ng/mL, with the unit left off.

Query: Find the recorded concentration at 2 h belonging to COc1cc(N(c2ccccc2)c2ccccc2)ccc1/C=C(\C#N)C(=O)O [Compound 20] and report it.
Response: 3150
